study.target: T1, recombinant human ROR1 protein (Fc-Tag, Acro Biosystems RO1-H5250) (human, UniProt Q01973 30-406)
T1 construct: Bought; also called hROR1; recombinant human ROR1 ECD; not shown: Fc tag
assay.name: SPR; hROR1-Fc immobilized
Measured kon values are reported for all entries that follow.
Give the value in M⁻¹ s⁻¹ but do not write M⁻¹ s⁻¹ after it.

Some solved entries appear below for comparison.
>>> number("PRO2271 (scFv, V domains shown, scFv, T cell score optimized variant of PRO2062; also called 55-39-G02-sc03) VH: QSQLVESGGGLVQPGGSLRLSCAVSGIDLSRNAMSWVRQAPGKGLEWIGIILTSGSTYYASWAKGRFTISKTSTTLDLQMNSLRAEDTAVYFCVRGIASSSLKSFWGQGTLVTVSS VL: AQQLTQSPSSLSASVGDRVTITCQASQNVWNNNYLSWFQQKPGKPPKLLIVTASTLASGVSSRFSGSGSGTDFTLTISSLQPEDFATYYCAGGFSGEIRAFGTGTKVTVLG")
"1.59e+06"
>>> number("PRO2060 (scFv, V domains shown, scFv (Full graft); also called 55-38-D07-sc02) VH: QSQVVESGGGLVQPGGSLRLSCAVSGFDLSSYAVSWVRQAPGKGLEWIGIIYPRANTYYASWAKGRFTISKDNSKNTVYLQMNSLRAEDTAVYFCARDRYDSGAYLYTTYFNLWGQGTLVTVSS VL: DVQMTQSPSSLSASVGDRVTITCRASENIYSGLAWYQQKPGKPPKLLIYRASTLASGVSSRFSGSGSGTDFTLTISSLQPEDFATYYCQGGYYSSSSTYIAFGTGTKVTVLG")
335000

Please find the next binder below.
For the binder PRO2291 (scFv, V domains shown, scFv, PRO2060 with VL-VH interdomain disulfide (AHo 141VL-51VH); also called 55-38-D07-sc06) VH: QSQVVESGGGLVQPGGSLRLSCAVSGFDLSSYAVSWVRQAPGKCLEWIGIIYPRANTYYASWAKGRFTISKDNSKNTVYLQMNSLRAEDTAVYFCARDRYDSGAYLYTTYFNLWGQGTLVTVSS VL: DVQMTQSPSSLSASVGDRVTITCRASENIYSGLAWYQQKPGKPPKLLIYRASTLASGVSSRFSGSGSGTDFTLTISSLQPEDFATYYCQGGYYSSSSTYIAFGCGTKVTVLG , what kon is on record? 269000

src = patent US20240392003A1
